# reported log10 of solubility kinetic; entries follow
Conditions: buffer; pH 7.4; 200.0 µM
Scale: log10; quantity: solubility kinetic; unit before log: µg/mL

| molecule | measured |
| --- | --- |
| COCCn1c(C)cc(C(=O)COC(=O)c2ccc(S(=O)(=O)N(C)C)cc2)c1C | 0.38 |
| Cc1cccc(N2CCN(CC(=O)NCc3ccc(Cl)cc3)CC2)c1C | 0.20 |
| O=C(O)CN1C(=O)CC(c2ccccc2)CC1=O | 1.40 |
| Cc1ccc2[nH]c3c(Cl)ncnc3c2c1 | 1.12 |

Look up log10 of solubility kinetic: CC(C)(CO)Nc1nc(Cl)nc(NC2CCCCC2)n1
1.56

Look up log10 of solubility kinetic: O=c1c2ccccc2ncn1-c1ccc(Cl)cc1Cl
1.53

----------
Settings: buffer; pH 7.4; 200.0 µM
# reported solubility kinetic; entries follow
Provide the reading as a plain figure in µg/mL.

Examples from the recorded data:
| compound | attribute-measured | measured |
| --- | --- | --- |
| CCN(c1ccccc1)S(=O)(=O)c1ccc(C(=O)Nc2cccc(NC(C)=O)c2)cc1 | solubility kinetic | 3.7 |
| O=C(NC12CC3CC(CC(C3)C1)C2)c1cccnc1Cl | solubility kinetic | 22.3 |
| CC(OC(=O)c1ccc2c(c1)S(=O)(=O)c1ccccc1C2=O)C(N)=O (stereo unspecified) | solubility kinetic | 29.3 |

Look up solubility kinetic: CN(CCOc1ccccc1)CC(O)COCc1ccccc1F (stereo unspecified)
46

----------
Settings: buffer; pH 7.4; 200.0 µM
# reported log10 solubility kinetic; entries follow
Scale: log10; quantity: solubility kinetic; unit before log: µg/mL

Examples from the recorded data:
| compound | attribute-measured | measured |
| --- | --- | --- |
| N=c1oc2ccccc2cc1C(=O)NCc1ccccc1 | log10 solubility kinetic | 0.83 |
| COc1ccc(C/C(N)=N/OC(=O)CCc2ccccc2)cc1 | log10 solubility kinetic | 0.89 |
| N#Cc1cncc(C#Cc2ccccc2)c1 | log10 solubility kinetic | 0.75 |
| CCOC(=O)CN(C#N)c1nc(N(C)C)nc(N(C)C)n1 | log10 solubility kinetic | 1.25 |
| Cc1ccc(OCCNC(=O)CNC(=O)c2ccc(Cl)c([N+](=O)[O-])c2)cc1 | log10 solubility kinetic | 1.10 |
| O=c1oc2ccccc2c(Nc2ccccc2)c1CN1CCCCC1 | log10 solubility kinetic | 1.64 |
| CN(C)c1ccc(-n2cccc2)cc1 | log10 solubility kinetic | 0.04 |
| COc1ccc(-c2cc(C(=O)NCc3ccco3)c3ccccc3n2)cc1OC | log10 solubility kinetic | 0.23 |

Look up log10 solubility kinetic: O=C(CSc1ccc2ccccc2n1)NC1CC1
1.58

Look up log10 solubility kinetic: COCCn1cnc2c1c(=O)[nH]c(=O)n2Cc1ccccc1
1.57

Look up log10 solubility kinetic: COc1ccccc1CC(=O)NCCN1CCCCC1
1.59

Look up log10 solubility kinetic: Cc1cc(NC(=O)CSCC(=O)Nc2cc(C(F)(F)F)ccc2N2CCCCC2)no1
0.88

Look up log10 solubility kinetic: CCN1C(=O)NC(c2ccc(Cl)cc2)C2=C1CCCC2=O (centres undefined)
1.65

Look up log10 solubility kinetic: Cc1ccc(C)c(NC(=O)C2CC(O)CN2C(=O)Oc2ccccc2)c1 (centres undefined)
1.66

Look up log10 solubility kinetic: CN(C)c1cc(-c2ccc(Br)cc2)oc(=O)c1Cl
0.04

Look up log10 solubility kinetic: CCCNC(=O)Nc1nc2ccccc2s1
1.53

Look up log10 solubility kinetic: Clc1ccccc1N1CCN(Cc2ccco2)CC1
1.48

Look up log10 solubility kinetic: Cc1ccc(-c2csc(NC(=O)c3c(C)noc3C)n2)s1
1.20

Look up log10 solubility kinetic: COC(=O)c1ccc(N2CCN(C)CC2)c(NC(=O)c2cccnc2)c1
1.71

Look up log10 solubility kinetic: Cc1cccc(OCc2nc(C#N)c(N3CCCC3)o2)c1
0.98

Look up log10 solubility kinetic: C=CCc1c(Cl)nc(C)nc1NCc1ccccc1
0.76

Look up log10 solubility kinetic: COc1cccc(NC(=S)N(CCC(C)C)C(C)c2ccncc2)c1 (centres undefined)
1.65

----------
Conditions: buffer; pH 7.4; 200.0 µM
attribute-measured: log10 of solubility kinetic (log10 of the value in µg/mL)
Scale: log10; quantity: solubility kinetic; unit before log: µg/mL

Examples from the recorded data:
| smiles-string | log10 of solubility kinetic |
| --- | --- |
| Cc1ccc(O)c(NC(=S)NC(=O)Cc2ccc(Cl)cc2)c1 | 0.11 |
| COc1ccc2c(=O)c(C(=O)NCc3ccccc3)c[nH]c2c1 | 0.36 |
| O=C(COC(=O)c1ccc(F)c([N+](=O)[O-])c1)NC(=O)NCc1ccccc1 | 1.33 |

Look up log10 of solubility kinetic: Cc1cccc(-n2cc(-c3ccccc3)[nH]c2=S)c1
0.94

Look up log10 of solubility kinetic: O=C(c1ccccc1)c1ccc(C(=O)N2CCN(c3ccc(O)cc3)CC2)cc1
1.68

Look up log10 of solubility kinetic: COC(=O)CCc1nc2cc(Cl)ccc2n(Cc2ccccc2)c1=O
0.15

Look up log10 of solubility kinetic: S=c1nccc(-c2ccc3c(c2)CCO3)[nH]1
1.17

Look up log10 of solubility kinetic: COc1ccc(CCNc2nc(-c3ccc(O)cc3)cs2)cc1OC
1.47

----------
Settings: buffer; pH 7.4; 200.0 µM
# reported solubility kinetic; entries follow
Provide the reading as a plain figure in µg/mL.

Examples from the recorded data:
| compound | attribute-measured | measured |
| --- | --- | --- |
| CCCc1ccc2oc(C(=O)N3CCC(COC)C3)c(C)c2c1 (stereo unspecified) | solubility kinetic | 24.7 |
| O=c1c2ccccc2nc(Cc2ccccc2)n1-c1ccccc1 | solubility kinetic | 39.5 |
| O=C(O)c1cccc(S(=O)(=O)N2CCc3ccccc3C2)c1 | solubility kinetic | 26.2 |

Look up solubility kinetic: C/C=C/c1ccc(OCC(O)CN2CCCCCCC2)c(OC)c1 (stereo unspecified)
35.2

----------
Details: buffer; pH 7.4; 200.0 µM
attribute-measured: solubility kinetic

Examples from the recorded data:
| molecule | solubility kinetic |
| --- | --- |
| CCOc1ccc(NC(=O)COC(=O)Cc2ccsc2)cc1 | 25.1 µg/mL |
| CC1CC(C)CN(C(=O)CCn2c(=O)oc3ccccc32)C1 (stereo unspecified) | > 45.4 µg/mL |
| CN(C)C(Cc1ccccc1)C(=O)c1c[nH]c2ccccc12.Cl (stereo unspecified) | > 49.3 µg/mL |
| O=C(NCC1CCCCC1)c1ccc(Br)o1 | > 42.9 µg/mL |
| O=C(CN(Cc1ccco1)C(=O)c1ccc(F)cc1)Nc1ccccc1Br | > 64.7 µg/mL |

Note: attention shifts to another entry.
Look up solubility kinetic: O=C(O)CSCc1nc2cccnc2n1C1CCCCC1
42.1 µg/mL

----------
# reported log10(solubility kinetic); entries follow
Details: buffer; pH 7.4; 200.0 µM
Scale: log10; quantity: solubility kinetic; unit before log: µg/mL

Examples from the recorded data:
| compound | measured |
| --- | --- |
| Cc1cccc(C)c1NC(=S)NC(=O)c1ccc(Br)o1 | 0.61 |
| COc1ccccc1NS(=O)(=O)c1ccc(C(=O)NCc2ccco2)cc1 | 1.72 |
| CCC(=O)Nc1ccc(N/C(N)=N/c2nc(C)cc(C)n2)cc1 | 1.56 |
| COc1ccc(/C=C2\CCc3ccccc3C2=O)cc1CN1CCOCC1 | 1.38 |
| COc1ccc(CNC(=O)c2c[nH]c3ccccc3c2=O)cc1 | 0.61 |
| COc1cccc(C(=O)NC2CCCc3ccccc32)c1 (stereo not given) | 0.89 |

Look up log10(solubility kinetic): Cc1ccnc(NC(=O)CNC(=O)c2ccc3c(c2)OCO3)c1
1.35

Look up log10(solubility kinetic): O=[N+]([O-])c1ccc(Oc2cccc3cccnc23)c(Cl)c1
1.15

Look up log10(solubility kinetic): O=C1c2cccnc2C(=O)N1CNc1ccc(Cl)cc1
1.54

Look up log10(solubility kinetic): CC(=O)Nc1ccc(C(=O)NCCCSc2ccccc2)cc1
0.72

Look up log10(solubility kinetic): O=[N+]([O-])c1ccc(NCc2ccc(Cl)cc2)nc1
0.08

Look up log10(solubility kinetic): O=C(Cc1ccc(Cl)cc1)NCCc1ccc(F)cc1
1.29

----------
Details: buffer; pH 7.4; 200.0 µM
Decide by solubility kinetic: equal to or exceeding 8 µg/mL means Condition met, less means Condition not met.

| compound | cat |
| --- | --- |
| Cc1cc(Cl)ccc1OCCCC(=O)NCc1ccccn1 | Condition met |

For this compound, is measured solubility kinetic 8 µg/mL or higher? Cc1ccc(-c2csc(NC(=O)c3ccccc3F)c2C(=O)O)cc1
Condition met

For this compound, is measured solubility kinetic 8 µg/mL or higher? COc1ccc(S(=O)(=O)N(C)CC(=O)NCc2ccccn2)cc1
Condition met

For this compound, is measured solubility kinetic 8 µg/mL or higher? O=C(/C=C/c1cccs1)c1ccc(N2CCOCC2)cc1
Condition not met

For this compound, is measured solubility kinetic 8 µg/mL or higher? Nc1ccc2ccc3cccc[n+]3c2c1.[O-][Cl+3]([O-])([O-])[O-]
Condition met

For this compound, is measured solubility kinetic 8 µg/mL or higher? Cc1ccc(S(=O)(=O)N(C)c2ccc(OCC(=O)OCc3ccc(C#N)cc3)cc2)cc1
Condition met
